molecular target: WT EGFR (Homo sapiens (Human)); assay: EGFR (Y1068) phosphorylation in NCI-H838 cells (MSD); details: p-EGFR (Y1068)/total EGFR, 4 h, hEGF stimulation
Sequence (P00533 25-1210): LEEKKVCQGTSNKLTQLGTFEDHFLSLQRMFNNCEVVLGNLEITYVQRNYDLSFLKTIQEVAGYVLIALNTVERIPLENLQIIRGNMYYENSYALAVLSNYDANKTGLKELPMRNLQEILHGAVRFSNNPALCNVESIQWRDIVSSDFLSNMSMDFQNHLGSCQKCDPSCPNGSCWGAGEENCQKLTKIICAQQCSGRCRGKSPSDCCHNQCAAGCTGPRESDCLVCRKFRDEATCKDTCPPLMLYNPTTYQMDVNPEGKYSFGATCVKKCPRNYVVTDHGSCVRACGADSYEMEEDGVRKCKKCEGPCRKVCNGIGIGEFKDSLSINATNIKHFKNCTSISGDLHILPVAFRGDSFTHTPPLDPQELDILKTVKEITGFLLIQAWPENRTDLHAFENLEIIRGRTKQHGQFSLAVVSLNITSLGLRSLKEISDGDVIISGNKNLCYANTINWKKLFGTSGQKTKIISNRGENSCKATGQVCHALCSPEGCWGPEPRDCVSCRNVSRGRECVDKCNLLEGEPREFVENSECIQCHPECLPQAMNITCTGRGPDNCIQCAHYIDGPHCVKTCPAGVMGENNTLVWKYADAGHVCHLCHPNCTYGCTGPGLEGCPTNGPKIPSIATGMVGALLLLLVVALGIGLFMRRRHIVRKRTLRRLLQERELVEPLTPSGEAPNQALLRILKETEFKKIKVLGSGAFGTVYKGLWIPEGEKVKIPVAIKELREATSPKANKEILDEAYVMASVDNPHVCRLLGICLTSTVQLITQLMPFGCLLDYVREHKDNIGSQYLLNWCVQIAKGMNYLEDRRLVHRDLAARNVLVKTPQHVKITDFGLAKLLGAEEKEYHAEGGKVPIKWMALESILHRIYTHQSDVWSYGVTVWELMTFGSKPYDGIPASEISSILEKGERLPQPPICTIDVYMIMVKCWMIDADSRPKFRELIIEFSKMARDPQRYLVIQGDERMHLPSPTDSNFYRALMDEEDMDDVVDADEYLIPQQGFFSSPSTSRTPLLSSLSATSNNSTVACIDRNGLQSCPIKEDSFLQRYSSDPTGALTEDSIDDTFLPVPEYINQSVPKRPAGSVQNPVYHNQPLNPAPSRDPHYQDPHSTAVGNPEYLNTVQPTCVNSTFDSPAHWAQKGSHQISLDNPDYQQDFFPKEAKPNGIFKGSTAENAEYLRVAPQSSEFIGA
PROPERTY MEASURED: IC50

Reference set (3 entries):
>>> result("[2H]C([2H])([2H])Oc1ccc2ncnc(Nc3ccc(Oc4ccn5ncnc5c4)c(C)c3)c2c1OC1CCN(C([2H])([2H])[2H])CC1(F)F (racemic) [Compound 26]")
"> 10 µM"
>>> result("Cc1cc(Nc2ncnc3cccc(OC4CCNC(C(F)F)C4)c23)ccc1Oc1ccn2ccnc2c1 (racemic) [Compound 15]")
"> 10 µM"
>>> result("COc1ccc2ncnc(Nc3ccc(Oc4ccn5ncnc5c4)c(C)c3)c2c1OC1CN(C)CCC1(F)F (single isomer, unassigned) [Compound 5]")
"> 3 µM"

Consider [2H]C([2H])([2H])N1CCC(Oc2cccc3ncnc(Nc4ccc(Oc5ccn6ncnc6c5)c(C)c4)c23)C(F)(F)C1 (single isomer, unassigned) [Compound 24] . Its measured IC50 is > 10 µM

According to the records, this compound Cc1cc(Nc2ncnc3cccc(OC45CCN(CC4)CC5)c23)ccc1Oc1ccn2ccnc2c1 [Compound 13] displays IC50 of > 3 µM

Noted for COc1ccc2ncnc(Nc3ccc(Oc4ccn5ncnc5c4)c(C)c3)c2c1OC[C@H]1CC(F)(F)CCN1C [Compound 4] : its IC50 reads > 3 µM

Just so you know, measured IC50 for Cc1cc(Nc2ncnc3cc(OC4CCOC4)cc(OC4CCN(C)CC4(F)F)c23)ccc1Oc1ccn2ncnc2c1 (single isomer, unassigned) [Compound 18] came out at 0.515 µM

Per the records, this compound ( CCN1CCC(Oc2cccc3ncnc(Nc4ccc(Oc5ccn6ncnc6c5)c(C)c4)c23)C(F)(F)C1 (single isomer, unassigned) [Compound 12] ) has IC50 equal to > 3 µM

IC50 for [2H]C([2H])([2H])N1CCC([2H])(Oc2cc(OC)cc3ncnc(Nc4ccc(Oc5ccn6ncnc6c5)c(C)c4)c23)C(F)(F)C1 (single isomer, unassigned) [Compound 28] is 5.22 µM

Record COc1cc(OC2CCN(C)CC2(F)F)c2c(Nc3ccc(Oc4ccn5ccnc5c4)c(C)c3)ncnc2c1 (single isomer, unassigned) [Compound 8] , field IC50: 1.8 µM

# IC50 of Cc1cc(Nc2ncnc3cc(N)cc(OC4CCN(C)CC4(F)F)c23)ccc1Oc1ccn2ncnc2c1 (single isomer, unassigned) [Compound 10] = > 3 µM

Reported IC50 for COc1cc(O[C@H]2CCNCC2(F)F)c2c(Nc3ccc(Oc4ccn5ncnc5c4)c(C)c3)ncnc2c1 [Compound 16] was 3.06 µM

---

target: WT HER2 (Homo sapiens (Human)); experiment: HER2 (Y1248) phosphorylation in BT474 cells (MSD); conditions: p-HER2 (Y1248)/total HER2, 4 h, read-out: HER2 WT Amplification BT474 IC50
Sequence (P04626 23-1255): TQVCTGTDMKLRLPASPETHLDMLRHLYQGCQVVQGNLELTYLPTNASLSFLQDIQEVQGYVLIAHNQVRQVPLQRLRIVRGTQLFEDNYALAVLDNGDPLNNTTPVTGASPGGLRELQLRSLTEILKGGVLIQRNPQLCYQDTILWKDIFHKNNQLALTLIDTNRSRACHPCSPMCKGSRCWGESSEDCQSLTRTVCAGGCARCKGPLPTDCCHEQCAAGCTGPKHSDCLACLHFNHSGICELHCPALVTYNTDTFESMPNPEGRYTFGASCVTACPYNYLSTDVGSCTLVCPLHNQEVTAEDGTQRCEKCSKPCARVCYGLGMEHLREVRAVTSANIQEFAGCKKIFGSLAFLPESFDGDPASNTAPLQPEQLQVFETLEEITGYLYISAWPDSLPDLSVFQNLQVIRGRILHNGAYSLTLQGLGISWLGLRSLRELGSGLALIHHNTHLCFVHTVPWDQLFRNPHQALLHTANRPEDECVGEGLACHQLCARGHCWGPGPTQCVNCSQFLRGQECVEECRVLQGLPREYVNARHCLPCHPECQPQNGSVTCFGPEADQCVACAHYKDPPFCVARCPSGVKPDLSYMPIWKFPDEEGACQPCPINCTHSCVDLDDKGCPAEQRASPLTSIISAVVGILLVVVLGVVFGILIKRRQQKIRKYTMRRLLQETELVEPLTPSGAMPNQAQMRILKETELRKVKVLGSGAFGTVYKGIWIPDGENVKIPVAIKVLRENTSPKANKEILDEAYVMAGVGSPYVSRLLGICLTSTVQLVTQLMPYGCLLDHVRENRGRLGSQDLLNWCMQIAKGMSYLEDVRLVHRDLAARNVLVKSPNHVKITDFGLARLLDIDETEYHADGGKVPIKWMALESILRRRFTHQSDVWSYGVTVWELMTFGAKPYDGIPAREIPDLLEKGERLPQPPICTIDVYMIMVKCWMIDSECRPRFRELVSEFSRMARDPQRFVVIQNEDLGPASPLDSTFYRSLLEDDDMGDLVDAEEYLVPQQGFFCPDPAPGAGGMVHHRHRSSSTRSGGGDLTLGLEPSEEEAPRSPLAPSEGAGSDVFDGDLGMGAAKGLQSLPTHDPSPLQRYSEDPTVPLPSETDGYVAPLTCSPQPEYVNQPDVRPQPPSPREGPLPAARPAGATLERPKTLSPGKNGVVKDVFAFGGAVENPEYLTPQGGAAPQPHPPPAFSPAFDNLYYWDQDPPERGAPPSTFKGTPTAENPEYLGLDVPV
PROPERTY MEASURED: IC50 (nM)

Recorded IC50, per entry:
>>> recorded_number("[2H]C([2H])([2H])N1CC[C@H](Oc2cccc3ncnc(Nc4ccc(Oc5ccn6ncnc6c5)c(C)c4)c23)C[C@@H]1C(F)(F)F (racemic) [Compound 25]")
16.8
>>> recorded_number("Cc1cc(Nc2ncnc3cccc(OC4CCN(C)CC4(F)F)c23)ccc1Oc1ccc2ccnn2c1 (single isomer, unassigned) [Compound 9]")
16.2
>>> recorded_number("[2H]C1(Oc2cc(OC)cc3ncnc(Nc4ccc(Oc5ccn6ncnc6c5)c(C)c4)c23)CCN(C)CC1(F)F (racemic) [Compound 27]")
10.3
>>> recorded_number("[2H]C([2H])([2H])N1CCC(Oc2cccc3ncnc(Nc4ccc(Oc5ccn6ncnc6c5)c(C)c4)c23)C(F)(F)C1 (single isomer, unassigned) [Compound 24]")
9.38

a. Cc1cc(Nc2ncnc3cccc(OC4CC(C)N(C)CC4(F)F)c23)ccc1Oc1ccn2ncnc2c1 (single isomer, unassigned) [Compound 19]
b. [2H]C([2H])([2H])Oc1ccc2ncnc(Nc3ccc(Oc4ccn5ncnc5c4)c(C)c3)c2c1OC1CCN(C([2H])([2H])[2H])CC1(F)F (racemic) [Compound 26]
Could you please tell me which of these two has the higher IC50: a or b ? Answer by quoting the chosen item's label.
a
(a: 9.56 nM, b: 5.84 nM)

Origin of values: patent US10822334B2
